Measured percent inhibition of viability by item
- System: normal primary NK cells, pool 1 (3 donors), resting (IL-2 0 ng/mL)
- test.method.notes: percent inhibition of viability; higher = more inhibition
- assay.setup: 72 h; 100 nM
Only the number, expressed in %, is required.

{"columns": ["compound", "tested.target", "percent inhibition of viability, %"],
 "data": [
  ["CNC(=O)c1cccc(-c2ccc3c(N4CCOC[C@@H]4C)nc(N4CCOC[C@@H]4C)nc3n2)c1 [AZD2014] (max concentration tested 10000 nM)", "normal primary NK cells, pool 1 (3 donors), resting (IL-2 0 ng/mL)", 24.4]
]}

// query # assay system normal primary NK cells, pool 1 (3 donors), resting (IL-2 0 ng/mL): give percent inhibition of viability of Oc1ccc2c(c1)CC[C@H](c1ccccc1)[C@@H]2c1ccc(OCCN2CCCC2)cc1 [Lasofoxifene] (max concentration tested 1000 nM)
// result -7

// query Check normal primary NK cells, pool 1 (3 donors), resting (IL-2 0 ng/mL) data and give percent inhibition of viability for C[C@@]1(C(=O)Nc2ccc(F)nc2)CCCN1c1nc(Nc2cc(C3CC3)n[nH]2)c2cccn2n1 (max concentration tested 10000 nM) .
// result 15.4

// query # return percent inhibition of viability of CN1CCN(c2ccc3nc(-c4c(N)c5c(F)cccc5[nH]c4=O)[nH]c3c2)CC1 [Dovitinib] (max concentration tested 10000 nM) (system: normal primary NK cells, pool 1 (3 donors), resting (IL-2 0 ng/mL))
// result 19.4

// query Supply percent inhibition of viability measured with normal primary NK cells, pool 1 (3 donors), resting (IL-2 0 ng/mL) for Cc1ccc(-c2cc(C(F)(F)F)nn2-c2ccc(S(N)(=O)=O)cc2)cc1 [Celecoxib] (max concentration tested 10000 nM) .
// result -6.8

// query // fetch percent inhibition of viability for CCc1cc2c(cc1N1CCC(N3CCOCC3)CC1)C(C)(C)c1[nH]c3cc(C#N)ccc3c1C2=O [Alectinib] (max concentration tested 1000 nM) ; system: normal primary NK cells, pool 1 (3 donors), resting (IL-2 0 ng/mL)
// result 1.83

// query // output percent inhibition of viability; input O=C(c1ccc(OCCN2CCCCC2)cc1)c1c(-c2ccc(O)cc2)sc2cc(O)ccc12 [Raloxifene] (max concentration tested 10000 nM) ; system normal primary NK cells, pool 1 (3 donors), resting (IL-2 0 ng/mL);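 also: normalised to DMSO-only wells as negative and benzethonium chloride as positive control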
// result -6.62

// query Look up and report percent inhibition of viability, with normal primary NK cells, pool 1 (3 donors), resting (IL-2 0 ng/mL) as system, for CCn1cc(-c2ccnc3[nH]c(-c4cccc(CN(C)C)c4)cc23)c(-c2ccc(NC(=O)N(C)C)cc2)n1 (max concentration tested 1000 nM)
// result -11.5

// query // output percent inhibition of viability; input CN1CCC(COc2cnc(-c3cccc(Cn4nc(-c5cccc(C#N)c5)ccc4=O)c3)nc2)CC1 (max concentration tested 1000 nM) ; system normal primary NK cells, pool 1 (3 donors), resting (IL-2 0 ng/mL);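 also: normalised to DMSO-only wells as negative and benzethonium chloride as positive control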
// result 3.81

// query State percent inhibition of viability (normal primary NK cells, pool 1 (3 donors), resting (IL-2 0 ng/mL)) of Cc1ccc(NC(=O)c2ccc(CN3CCN(C)CC3)cc2)cc1Nc1nc(-c2cccnc2)cs1 [Masitinib] (max concentration tested 10000 nM) .
// result 9.4

// query Supply percent inhibition of viability measured with normal primary NK cells, pool 1 (3 donors), resting (IL-2 0 ng/mL) for CN(C)CCOc1ccc(/C(=C(/CCCl)c2ccccc2)c2ccccc2)cc1 [Toremifene] (max concentration tested 10000 nM) .
// result 4.14

// query Give measured percent inhibition of viability for Nc1ccn([C@@H]2O[C@H](CO)[C@@H](O)[C@@H]2O)c(=O)n1 [Cytarabine] (max concentration tested 10000 nM) (normal primary NK cells, pool 1 (3 donors), resting (IL-2 0 ng/mL)).
// result -18.8

// query GET percent inhibition of viability where system = normal primary NK cells, pool 1 (3 donors), resting (IL-2 0 ng/mL) and item = Cc1cnc(Nc2ccc(OCCN3CCCC3)cc2)nc1Nc1cccc(S(=O)(=O)NC(C)(C)C)c1 (max concentration tested 10000 nM);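 also: normalised to DMSO-only wells as negative and benzethonium chloride as positive control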
// result 14.1

// query Give reported percent inhibition of viability for C=CCc1cccc(/C=N/NC(=O)CN2CCN(Cc3ccccc3)CC2)c1O [PAC-1] (max concentration tested 10000 nM) (normal primary NK cells, pool 1 (3 donors), resting (IL-2 0 ng/mL))
// result -0.24

// query Name the value of percent inhibition of viability reported for COC1=CC(c2cc3ccccc3[nH]2)=N/C1=C\c1[nH]c(C)cc1C [Obatoclax] (max concentration tested 10000 nM) when tested on normal primary NK cells, pool 1 (3 donors), resting (IL-2 0 ng/mL).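 Also: normalised to DMSO-only wells as negative and benzethonium chloride as positive control.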
// result -10.3

// query Report its percent inhibition of viability with normal primary NK cells, pool 1 (3 donors), resting (IL-2 0 ng/mL) as the test system: COc1cc2c(Oc3ccc4[nH]c(C)cc4c3F)ncnc2cc1OCCCN1CCCC1 [Cediranib] (max concentration tested 1000 nM)
// result -0.33
